Molecular target: Human Thrombin (Homo sapiens, UniProt P00734)
Test: Inhibition of the amidase activity of thrombin (Kass)
Format: biochemical
Details: chromogenic substrate N-benzoyl-Phe-Val-Arg-p-nitroanilide; mean over range of concentrations
Overview of recorded Kass × 10^6 (L/mole) Human Thrombin for various compounds

Query: Can you look up the measured Kass × 10^6 (L/mole) Human Thrombin of N=C(N)c1ccc(CNC(=O)[C@@H]2C[C@H](Oc3ccccc3)CN2C(=O)[C@H]2CCCCN2)cc1 (relative stereo) for me?
Reply: 3.0 × 10^6 L/mole

Query: Please give the result for Cl.N=C(N)N1CC=C(CNC(=O)[C@@H]2CCCN2C(=O)[C@@H](CC2CCCCC2)NCC(=O)O)CC1 too.
Reply: 430 × 10^6 L/mole
